Where these numbers come from: PubChem BioAssay (NCI)

Quick reference: growth inhibition of the listed items.
Assay: NCI Yeast Anticancer Drug Screen. Data for the cln2 rad14 strain (AID 165);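 further: 0% = growth equal to vehicle treated cultures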
Details: S. cerevisiae cln2 rad14 strain, at 5.0 µM (retest, dose inferred, filed as 0.5), stronger effect = higher value
Compounds without any hit were thinned out: in the full panel of roughly 79,000, 15% have a hit.
Just the number please, in %, no unit attached.

compound	endpoint_unit	growth inhibition
C[Si](C)(C)C1=C([Si](C)(C)C)C(Cl)(Cl)C1=O	%	6
Cc1cc[c]([Sn]([Cl])([O][Sn]([Cl])([c]2ccc(C)cc2)[c]2ccc(C)cc2)[c]2ccc(C)cc2)cc1	%	2
COC1=C(OC)C(=O)C(SCc2ccco2)=CC1=O	%	51

stdin: Supply recorded growth inhibition for O=C(O)C1(Cc2ccc3c(c2)CCC3)Cc2ccccc2C1=O (configuration not stated) here.
stdout: 3

stdin: Supply recorded growth inhibition for CCOC(=O)C1CSC(c2c(CO)cnc(C)c2O)N1 (configuration not stated) here.
stdout: 4

stdin: Supply recorded growth inhibition for COC(=O)C1(c2ccc(N(C)C)cc2OC)CCCN(C(=O)Oc2ccccc2[N+](=O)[O-])CCc2c1[nH]c1ccccc21 (configuration not stated) here.
stdout: 39

stdin: Supply recorded growth inhibition for Cc1c2cnccc2c(C)c2c1sc1ccccc12 here.
stdout: 65

----------
Assay: NCI Yeast Anticancer Drug Screen. Data for the bub3 strain (AID 167)
Conditions: S. cerevisiae bub3 mutant strain, at 50.0 µM
The panel holds about 79,000 compounds, 15% with a hit somewhere; the sample as a whole holds those more often. The source made the active and inactive calls. Rule as the data show it: active = growth inhibition above about 70%; inactive = the rest.
One label from this list, please: active, inactive

Consider the worked cases shown below.
molecule	class_label
CCOC(=O)C(/C=N\C(=S)Nc1c(CC)cccc1C(C)(C)C)=C(/O)c1ccccc1	inactive
OB1c2ccccc2CCc2ccccc21	active
CCO/C=C1\C(=O)C=C(C)CC1c1ccc(OC)c(OC)c1OC (centres undefined)	inactive

# input for lookup
stdin: // return assay outcome for Nc1ccc2c(c1)[nH]c(=O)c1cc(Cl)c(Cl)cc12
stdout: inactive

----------
Test: NCI Yeast Anticancer Drug Screen. Data for the rad50 strain (AID 155);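 further: 0% = growth of vehicle-only cultures of the same strain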
Details: S. cerevisiae rad50 strain growth inhibition; at 50.0 µM (retest, dose inferred, filed as 5.0)
About 79,000 compounds went through this panel and 15% of them were active in at least one assay; those are over-represented in the sample as a whole. Activity calls are given as the source filed them. Cut-off read from the data, not from the text of the source: active = growth inhibition above about 70%; inactive = the rest.
One label from this list, please: active, inactive

Consider the worked cases shown below.
mol_smiles	class_label
N#CSCCSCc1ccc(Cl)cc1	active
CC(=O)c1c(O)c2ccc(Cl)cc2[nH]c1=O	active

# input for lookup
stdin: // return assay outcome for ClCc1c(-c2ccccc2)oc(-c2ccccc2)c1CCl
stdout: inactive

----------
Assay: NCI Yeast Anticancer Drug Screen. Data for the cln2 rad14 strain (AID 165);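 further: 0% = growth equal to vehicle treated cultures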
Settings: S. cerevisiae cln2 rad14 strain, at 50.0 µM, stronger effect = higher value
Procedure: Growth inhibition of yeast strains with defined genetic alterations is measured as a screen for potential anti-cancer activity. Selected strains with alterations in DNA damage repair or cell cycle control were exposed to compounds and growth inhibition was measured relative to vehicle treated controls. The strain used in this assay is cln2 rad14
This is part of a sample that, as a whole, favours compounds with a hit. Of some 79,000 tested, about 15% had one in any assay.
Classify as follows. Reported growth inhibition greater than or equal to 70%: 1 (yes). Reported growth inhibition below: 0 (no).

compound	class_label
[N-]=[N+]=CC(=O)C1(c2ccccc2)OC1c1ccccc1 (stereo not drawn)	0 (no)
COc1ccc(C2COc3cc(OC(C)=O)c(OC(C)=O)cc3C2)cc1 (stereo not drawn)	1 (yes)
Cc1ccc(S(=O)/C=C/S(=O)(=O)c2ccc(C)cc2)cc1 (stereo not drawn)	1 (yes)

stdin: Please tell me: is the compound O=C1C(=O)c2ccccc2C=C1Br at or over 70% in terms of growth inhibition?
stdout: 1 (yes)

stdin: Please tell me: is the compound CCCCCN(CCC)CCCCCCCCCN1CCCc2cc(OC)ccc21 at or over 70% in terms of growth inhibition?
stdout: 1 (yes)

stdin: Please tell me: is the compound O=C1C=CC(=NN=C(c2ccccc2)c2ccccc2)C=C1 at or over 70% in terms of growth inhibition?
stdout: 0 (no)

stdin: Please tell me: is the compound CC[N+](C)(CC)CCCOC(=O)c1ccccc1Oc1ccc(C)cc1 at or over 70% in terms of growth inhibition?
stdout: 0 (no)

stdin: Please tell me: is the compound CC1=C(CO)C(=O)O[C@@H]([C@@H](C)[C@H]2CC[C@H]3[C@@H]4C[C@@H](O)C5=CC=CC(=O)[C@]5(C)[C@H]4CC[C@]23C)C1 at or over 70% in terms of growth inhibition?
stdout: 0 (no)

stdin: Please tell me: is the compound NC(CSSCC(N)=NCCCCCSC12CC3CC(CC(C3)C1)C2)=NCCCCCSC12CC3CC(CC(C3)C1)C2 at or over 70% in terms of growth inhibition?
stdout: 1 (yes)

stdin: Please tell me: is the compound Cc1ccc(C)c(NC(=O)/C(=N\NC(N)=S)C(C#N)c2ccccc2)c1 (stereo not drawn) at or over 70% in terms of growth inhibition?
stdout: 0 (no)

stdin: Please tell me: is the compound CCOc1c(N=Nc2ccc(Cl)cc2)c(-c2ccccc2)nn1C(N)=S at or over 70% in terms of growth inhibition?
stdout: 1 (yes)

stdin: Please tell me: is the compound Clc1ccc(CN2COc3c(ccc4cccnc34)C2)c(Cl)c1 at or over 70% in terms of growth inhibition?
stdout: 1 (yes)

----------
Assay: NCI Yeast Anticancer Drug Screen. Data for the rad50 strain (AID 155);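 further: 0% = growth of vehicle-only cultures of the same strain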
Conditions: S. cerevisiae rad50 strain growth inhibition; at 50.0 µM; stronger effect = higher value
This is part of a sample that, as a whole, favours compounds with a hit. Of some 79,000 tested, about 15% had one in any assay. Where a SMILES comes first, the peptide text is derived from it. The star is where a group is joined. Trt = c1ccc(C(c2ccccc2)(c2ccccc2)*)cc1; Cbz = O=C(OCc1ccccc1)*
Quick reference: growth inhibition of the listed items.
Just the number please, in %, no unit attached.

Would you please look over these solved cases?
compound	growth inhibition, %
OC12C3C4CC5C(C4[C@@H]1Br)C2[C@@](O)(c1c(F)c(F)c(F)c(F)c1F)C53 (stereo partly specified)	27.2
O=C1C(=C2C(=O)c3ccccc3[N+]2=O)N([O-])c2ccccc21	69
CC1(C)OC2C(COC(c3ccccc3)(c3ccccc3)c3ccccc3)OC(n3cnc4c(N)ncnc43)C2O1 (stereo unspecified)	64.9
COc1ccc(Cc2cncc3c(O)c(OC)ccc23)cc1O	80.2
O=C(OCc1ccccc1)c1ccccc1Cl	50.4
O=c1c2cc3c(cc2c2cccc4c2n1CCC4)OCO3	71.2
Nc1cc(Cl)c(I)cc1Cl	74.5
CCOC(=O)CCC(NC(=O)C(CSC(c1ccccc1)(c1ccccc1)c1ccccc1)NC(=O)OCc1ccccc1)C(=O)NC(CCC(=O)OCC)C(=O)NC(CCC(=O)OCC)C(=O)NC(CCC(=O)OCC)C(=O)NC(CSC(c1ccccc1)(c1ccccc1)c1ccccc1)C(=O)OC (stereo unspecified) (Cbz-C(Trt)E(OEt)E(OEt)E(OEt)E(OEt)C(Trt)-OMe; configuration not given here)	74.2
O=S(=O)(CC(Br)c1ccccc1)CC(Br)c1ccccc1 (stereo unspecified)	50.2
Oc1ccc(C2CCCCC2)c(O)c1	75.5

--- query ---
stdin: Supply recorded growth inhibition for COc1cc2c(c(O)c1C)C(=O)C(Cl)=CC2=O here.
stdout: 99.1

----------
Experiment: NCI Yeast Anticancer Drug Screen. Data for the cln2 rad14 strain (AID 165);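 further: 0% = growth equal to vehicle treated cultures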
Settings: S. cerevisiae cln2 rad14 strain, at 50.0 µM
About 79,000 compounds went through this panel and 15% of them were active in at least one assay; those are over-represented in the sample as a whole. Calls of active or inactive are those of the source. Rule as the data show it: active = growth inhibition above about 70%; inactive = the rest.
One label from this list, please: active, inactive

stdin: // return assay outcome for CC12OC1C(=O)c1ccccc1C2=O (configuration not stated)
stdout: inactive

stdin: // return assay outcome for COc1cc(C2c3cc4c(cc3OC3(O)C=C(C)OC(=O)C23)OCO4)cc(OC)c1OC (configuration not stated)
stdout: inactive

stdin: // return assay outcome for C/C=C(/CCC1NCCC2c3ccccc3NC12)[Si](C)(C)C (configuration not stated)
stdout: inactive

stdin: // return assay outcome for CC(=O)OC1=C(CC(C)C)C(=O)c2ccccc2C1=O
stdout: inactive

stdin: // return assay outcome for O=C(Nc1c(Cl)cccc1Cl)OCc1ccc2c(c1)OCO2
stdout: inactive

stdin: // return assay outcome for C1=c2ccccc2=C2C(=C(c3ccccc3)C(c3ccccc3)=NN2c2ccccc2)S1
stdout: inactive

stdin: // return assay outcome for CSCCC(NC(=O)C(CCSC)NS(=O)(=O)Cc1ccccc1)C(=O)O (configuration not stated)
stdout: active

stdin: // return assay outcome for O=[N+]([O-])c1cnc(Sc2cncc[n+]2[O-])s1
stdout: active

stdin: // return assay outcome for CCCCCCCC/C=C\CCCCCCCC(=O)OCCCCC
stdout: inactive

stdin: // return assay outcome for O=C1c2ccc(O)c(O)c2C(=O)c2c(O)ccc(O)c21
stdout: inactive
